assayed-target: T1, Sla1-2, P32790
T1 sequence (P32790 60-140, looked up): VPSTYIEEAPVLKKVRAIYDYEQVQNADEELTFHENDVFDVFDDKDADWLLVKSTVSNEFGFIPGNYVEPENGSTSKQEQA
experiment-notes: SPOT array
applied-conditions: median of control spots 712
assay-metric: SPOT intensity
Reply briefly: the number, and no unit.

The binder listed as KLSRGRYGLPLSSRP has a reported SPOT intensity of 1

Memo: VFQFQMPTTPISTKM , reported SPOT intensity: 7

Reported SPOT intensity for LYKRKPILLPDPKPL was 0

So for ALRRRLPVTRSKINW , the logged SPOT intensity turned out to be 0

The value of SPOT intensity measured for the binder PPPPPPPPPPLPQSL turned out to be 0

For NRARYLPQNPDIIAG the binder record lists SPOT intensity as 0

Reported SPOT intensity for RAPPPVPKKPSSRIA was 0

Memo: SRYRRPLTLLLLKPF , reported SPOT intensity: 1

Recorded SPOT intensity (binder LKRITSPPLPPRADS ): 0

So, RTRRRPPPPPIPSTQ ? Its SPOT intensity was 3

Noted for AVPPPPPPPPLPESL : its SPOT intensity reads 0

According to the records, this binder TTNRGPPPLPPRANV displays SPOT intensity of 0

What the record says about LKHGWKPLRPIKLIS : SPOT intensity is 0

Value of SPOT intensity reported for the binder VSKLRSPNTPRRLRK is 0

QTREPNEPPPPSPAM yielded SPOT intensity of 0
